The entries below come with measured Kd values attached.
Target: T1, human IL-18BP (human, UniProt O95998 31-194)
T1 construct: UniProt printed as 095998; also called hIL-18BP
T1 sequence: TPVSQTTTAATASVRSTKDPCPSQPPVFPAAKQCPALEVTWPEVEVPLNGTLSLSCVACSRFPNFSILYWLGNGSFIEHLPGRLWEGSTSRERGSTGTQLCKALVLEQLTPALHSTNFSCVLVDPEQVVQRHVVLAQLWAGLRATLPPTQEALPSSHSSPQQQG
Assay: BLI, apparent KD
endpoint: Kd (pM)

SA301a HC-Y100P (antibody, V domains shown) VH: QVQLQESGPGLVKPSQTLSLTCTVSGYSITSDYNSHWIRQPPGKGLEWIGYIHYSGSTNYNPSLKSRVTISRDTSKNQFSLKLSSVTAADTAVYYCARNYGSIPVNYFDYWGQGTLVTVSS VL: EIVLTQSPATLSLSPGERATLSCSASSSVSYMYWYQQKPGQAPRPLIYRTSNLASGIPARFSGSGSGTDFTLTISSLEPEDFAVYYCQQYHSYPTFGGGTKVEIK = 630
SA301a HC-I99G (antibody, name in Kabat numbering, V domains shown, IgG1 kappa) VH: QVQLQESGPGLVKPSQTLSLTCTVSGYSITSDYNSHWIRQPPGKGLEWIGYIHYSGSTNYNPSLKSRVTISRDTSKNQFSLKLSSVTAADTAVYYCARNYGSGYVNYFDYWGQGTLVTVSS VL: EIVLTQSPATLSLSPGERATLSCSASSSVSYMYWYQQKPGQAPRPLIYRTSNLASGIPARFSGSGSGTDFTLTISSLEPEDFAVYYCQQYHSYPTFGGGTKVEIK = 1040
SA301a HC-V100aD (antibody, name in Kabat numbering, V domains shown, IgG1 kappa) VH: QVQLQESGPGLVKPSQTLSLTCTVSGYSITSDYNSHWIRQPPGKGLEWIGYIHYSGSTNYNPSLKSRVTISRDTSKNQFSLKLSSVTAADTAVYYCARNYGSIYDNYFDYWGQGTLVTVSS VL: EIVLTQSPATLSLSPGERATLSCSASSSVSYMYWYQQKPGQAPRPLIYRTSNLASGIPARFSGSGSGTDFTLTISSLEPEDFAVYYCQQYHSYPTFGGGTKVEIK = 4990
SA301a HC-I99S (antibody, name in Kabat numbering, V domains shown, IgG1 kappa) VH: QVQLQESGPGLVKPSQTLSLTCTVSGYSITSDYNSHWIRQPPGKGLEWIGYIHYSGSTNYNPSLKSRVTISRDTSKNQFSLKLSSVTAADTAVYYCARNYGSSYVNYFDYWGQGTLVTVSS VL: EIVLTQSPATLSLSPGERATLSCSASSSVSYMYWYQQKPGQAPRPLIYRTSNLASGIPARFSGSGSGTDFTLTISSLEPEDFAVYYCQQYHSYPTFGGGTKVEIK = 560
SA301a HC-Y100K (antibody, V domains shown) VH: QVQLQESGPGLVKPSQTLSLTCTVSGYSITSDYNSHWIRQPPGKGLEWIGYIHYSGSTNYNPSLKSRVTISRDTSKNQFSLKLSSVTAADTAVYYCARNYGSIKVNYFDYWGQGTLVTVSS VL: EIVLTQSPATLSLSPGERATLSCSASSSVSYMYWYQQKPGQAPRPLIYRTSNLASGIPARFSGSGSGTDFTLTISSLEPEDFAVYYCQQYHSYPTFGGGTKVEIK = 1490
SA301a HC-V100aG (antibody, name in Kabat numbering, V domains shown, IgG1 kappa) VH: QVQLQESGPGLVKPSQTLSLTCTVSGYSITSDYNSHWIRQPPGKGLEWIGYIHYSGSTNYNPSLKSRVTISRDTSKNQFSLKLSSVTAADTAVYYCARNYGSIYGNYFDYWGQGTLVTVSS VL: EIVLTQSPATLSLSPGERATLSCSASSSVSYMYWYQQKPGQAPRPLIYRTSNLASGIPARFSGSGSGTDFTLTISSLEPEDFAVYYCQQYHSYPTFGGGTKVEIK = 550
SA301a HC-Y100Q (antibody, V domains shown) VH: QVQLQESGPGLVKPSQTLSLTCTVSGYSITSDYNSHWIRQPPGKGLEWIGYIHYSGSTNYNPSLKSRVTISRDTSKNQFSLKLSSVTAADTAVYYCARNYGSIQVNYFDYWGQGTLVTVSS VL: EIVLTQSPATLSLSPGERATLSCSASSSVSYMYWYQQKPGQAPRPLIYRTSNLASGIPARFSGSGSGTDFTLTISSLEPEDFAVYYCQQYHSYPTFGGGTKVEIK = 1880
SA301a HC-N100bR (antibody, name in Kabat numbering, V domains shown, IgG1 kappa) VH: QVQLQESGPGLVKPSQTLSLTCTVSGYSITSDYNSHWIRQPPGKGLEWIGYIHYSGSTNYNPSLKSRVTISRDTSKNQFSLKLSSVTAADTAVYYCARNYGSIYVRYFDYWGQGTLVTVSS VL: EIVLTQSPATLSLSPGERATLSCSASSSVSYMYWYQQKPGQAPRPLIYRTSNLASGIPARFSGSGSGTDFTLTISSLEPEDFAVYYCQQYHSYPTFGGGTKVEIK = 250
SA301a HC-N100bS (antibody, name in Kabat numbering, V domains shown, IgG1 kappa) VH: QVQLQESGPGLVKPSQTLSLTCTVSGYSITSDYNSHWIRQPPGKGLEWIGYIHYSGSTNYNPSLKSRVTISRDTSKNQFSLKLSSVTAADTAVYYCARNYGSIYVSYFDYWGQGTLVTVSS VL: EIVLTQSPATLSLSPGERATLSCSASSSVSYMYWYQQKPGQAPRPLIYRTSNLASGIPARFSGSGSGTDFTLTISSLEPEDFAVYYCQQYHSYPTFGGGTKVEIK = 490
SA301a HC-I99A (antibody, name in Kabat numbering, V domains shown, IgG1 kappa) VH: QVQLQESGPGLVKPSQTLSLTCTVSGYSITSDYNSHWIRQPPGKGLEWIGYIHYSGSTNYNPSLKSRVTISRDTSKNQFSLKLSSVTAADTAVYYCARNYGSAYVNYFDYWGQGTLVTVSS VL: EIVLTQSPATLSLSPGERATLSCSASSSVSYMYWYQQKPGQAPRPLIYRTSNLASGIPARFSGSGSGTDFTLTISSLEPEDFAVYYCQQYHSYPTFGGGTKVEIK = 510
